Values compiled from paper PMC13016609.

# measured-target: T1, TFAM (no MTS) (Homo sapiens, UniProt Q00059 43-246)
# T1 sequence: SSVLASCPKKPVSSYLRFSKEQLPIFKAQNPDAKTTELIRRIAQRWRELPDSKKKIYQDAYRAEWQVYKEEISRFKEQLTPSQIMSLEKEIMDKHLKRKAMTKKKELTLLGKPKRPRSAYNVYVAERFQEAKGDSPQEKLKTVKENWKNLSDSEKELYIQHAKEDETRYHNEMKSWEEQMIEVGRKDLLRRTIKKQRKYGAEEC
# measurement-protocol: fluorescence anisotropy; +UVC; Hill n 2.94±0.40; FP: 25 mM HEPES, 10 mM Mg(OAc)2, 25 mM NaOAc, 75 mM KOAc, pH 7.5, 1 nM DNA, TFAM 0-15 nM diluted on ice (read temperature not stated); AFM oligos: on ice, 2 min
# test-parameters: protein: recombinant; label: 5' 6-FAM on strand 1; blunt
experimental-endpoint: Kd (nM)
A number alone suffices; assume nM.

Ask: Kd lookup needed for ND1_353 +UVC (dsDNA, UVC 1500 J/m2 photolesions (positions undefined)) DNA 1: ATTATTATAATAAACACCCTCACCACTACAATC DNA 2: GATTGTAGTGGTGAGGGTGTTTATTATAATAAT , thanks.
Result: 7.66
